System: Fusarium oxysporum
protocol-text: Antifungal activity against Fusarium oxysporum after 4 days
Assay type: functional, organism-based
test-parameters: 96 h
// assign 1 if IC50 falls strictly below 100 µg/mL, else -1 (ties count as -1)

O=c1cc(-c2cc(C(F)(F)F)cc(C(F)(F)F)c2)oc2ccc(Br)cc12 : 1
COc1ccc2oc(-c3cc(C(F)(F)F)cc(C(F)(F)F)c3)cc(=O)c2c1 : -1
O=c1cc(-c2ccc(Cl)cc2)oc2ccc(Br)cc12 : -1
COc1ccc2oc(C3CCCCC3)cc(=O)c2c1 : -1

Lab note: next compound to report on.
Query :: Does `O=c1cc(-c2ccc(F)cc2)oc2ccc(Br)cc12` have IC50 strictly under 100 µg/mL?
Result :: -1

###

Exercise: for every item that follows, state its recorded IC50.
Test system: Fusarium oxysporum
protocol-text: Antifungal activity against Fusarium oxysporum after 4 days
Type: functional, organism-based
test-parameters: 96 h
Remember to quote the unit after the number.

Consider the following illustrative entries.
COc1ccc2oc(-c3ccc(Cl)cc3)cc(=O)c2c1 : 1430 µg/mL
O=c1cc(-c2ccccc2)oc2ccc(Br)cc12 : 26900 µg/mL
COc1ccc(-c2cc(=O)c3cc(Br)ccc3o2)cc1 : 2250 µg/mL

# batch size: 3; output IC50 per entry
1. COc1ccc2c(=O)cc(-c3ccc(Br)cc3)oc2c1
2. COc1ccc2c(=O)cc(-c3cc(Cl)cc(Cl)c3)oc2c1
3. O=c1cc(C2CCCCC2)oc2ccc(Br)cc12

Result ::
["176 µg/mL", "10600 µg/mL", "107 µg/mL"]
